All figures here come from the supplement of paper PMC7877785.

# ASSAY COMMENT: self-splicing fitness, log relative to wild type (ln ratio); higher = more splicing; Tetrahymena group I intron in knt gene, E. coli kanamycin selection, DiMSum; sequences stand for … in CUCUCU…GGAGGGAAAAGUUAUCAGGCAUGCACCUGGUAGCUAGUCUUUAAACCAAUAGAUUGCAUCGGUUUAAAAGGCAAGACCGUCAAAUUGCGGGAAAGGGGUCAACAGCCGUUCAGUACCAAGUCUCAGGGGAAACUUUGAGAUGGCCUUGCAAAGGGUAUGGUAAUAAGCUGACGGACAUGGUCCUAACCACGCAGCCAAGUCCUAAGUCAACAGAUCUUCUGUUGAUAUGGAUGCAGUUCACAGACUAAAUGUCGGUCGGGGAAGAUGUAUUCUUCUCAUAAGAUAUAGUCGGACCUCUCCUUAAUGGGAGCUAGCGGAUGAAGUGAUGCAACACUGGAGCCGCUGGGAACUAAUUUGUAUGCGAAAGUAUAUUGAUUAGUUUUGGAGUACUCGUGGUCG;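 also: selection with 25 µg/mL kanamycin versus none on LB agar overnight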
# CONDITION SUMMARY: 30 °C
Would you mind labelling by self-splicing fitness (ln)? At or over -1 is Yes, under is No.

GCUAAGCAAUAUUACGGUGG : No
UACAAGCAAUAUUACGGUCG : Yes
AAAUAGCAAUAUUACGCUGC : No
GGGCAGCAAUAUUACGGUAC : No
UAUAAGCAAUAUUACGCACA : Yes
CGUGAGCAAUAUUACGCUUU : No

For the next question, use this sequence.
QUERY: Record CCCCAGCAAUAUUACGGGAA ; criterion: self-splicing fitness (ln) no lower than -1. Met?
RESULT: No

====

# ASSAY COMMENT: self-splicing fitness, log relative to wild type (ln ratio); higher = more splicing; Tetrahymena group I intron in knt gene, E. coli kanamycin selection, DiMSum; sequences stand for … in CUCUCU…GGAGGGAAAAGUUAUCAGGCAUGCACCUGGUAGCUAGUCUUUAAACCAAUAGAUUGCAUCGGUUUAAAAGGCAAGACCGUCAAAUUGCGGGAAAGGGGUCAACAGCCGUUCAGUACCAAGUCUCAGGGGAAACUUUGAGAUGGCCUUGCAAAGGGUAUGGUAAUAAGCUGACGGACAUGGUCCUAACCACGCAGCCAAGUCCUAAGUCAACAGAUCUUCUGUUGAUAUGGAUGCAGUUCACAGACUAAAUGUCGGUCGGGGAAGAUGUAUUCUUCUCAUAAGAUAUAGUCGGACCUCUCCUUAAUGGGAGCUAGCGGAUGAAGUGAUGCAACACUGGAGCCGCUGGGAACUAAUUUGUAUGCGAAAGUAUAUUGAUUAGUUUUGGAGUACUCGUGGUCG
# CONDITION SUMMARY: 30 °C
VALUE TYPE: self-splicing fitness (ln)
A bare number is all that is needed in reply.

Example entries and their recorded answers appear below.
AAGCAGCAAUAUUACGGACG : -2.62
AUGCAGCAAUAUUACGUGAU : -1.76
UAAAAGCAAUAUUACGCCGG : -0.134
GGAUAGCAAUAUUACGGUGU : -1.3
AUUCAGCAAUAUUACGUAAA : -0.737
AGUCAGCAAUAUUACGUACU : -1.92
AUUAAGCAAUAUUACGAGAU : -2.99
CUCUAGCAAUAUUACGCGAC : -3.14

Now let's try a different one.
QUERY: Please give the measured self-splicing fitness (ln) for this sequence: CCCAAGCAAUAUUACGCCAC
RESULT: -2.48

====

# ASSAY COMMENT: self-splicing fitness, log relative to wild type (ln ratio); higher = more splicing; Tetrahymena group I intron in knt gene, E. coli kanamycin selection, DiMSum; sequences stand for … in CUCUCU…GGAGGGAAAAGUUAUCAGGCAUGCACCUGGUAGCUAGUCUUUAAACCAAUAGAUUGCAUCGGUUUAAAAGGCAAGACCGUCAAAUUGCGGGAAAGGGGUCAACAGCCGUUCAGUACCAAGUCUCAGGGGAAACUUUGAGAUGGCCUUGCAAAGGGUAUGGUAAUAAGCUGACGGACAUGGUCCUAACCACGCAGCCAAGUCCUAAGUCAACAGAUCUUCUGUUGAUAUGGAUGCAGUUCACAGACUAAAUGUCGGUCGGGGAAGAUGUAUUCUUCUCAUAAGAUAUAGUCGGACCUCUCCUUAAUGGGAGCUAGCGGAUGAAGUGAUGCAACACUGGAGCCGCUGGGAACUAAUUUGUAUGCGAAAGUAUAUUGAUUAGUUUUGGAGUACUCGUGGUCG
# CONDITION SUMMARY: 37 °C
VALUE TYPE: self-splicing fitness (ln)
Could you keep your reply to the number by itself?

GGUCAGCAAUAUUACGCAUA : -0.214
AGCUAGCAAUAUUACGAUAC : -1.59
AGGGAGCAAUAUUACGUUUA : -2.33
CACCAGCAAUAUUACGUUGA : -2.1
UCCAAGCAAUAUUACGCACC : -1.94

Next, consider the following sequence.
QUERY: What measured self-splicing fitness (ln) goes with AAGCAGCAAUAUUACGGGUG ?
RESULT: -1.85

====

# ASSAY COMMENT: self-splicing fitness, log relative to wild type (ln ratio); higher = more splicing; Tetrahymena group I intron in knt gene, E. coli kanamycin selection, DiMSum; sequences stand for … in CUCUCU…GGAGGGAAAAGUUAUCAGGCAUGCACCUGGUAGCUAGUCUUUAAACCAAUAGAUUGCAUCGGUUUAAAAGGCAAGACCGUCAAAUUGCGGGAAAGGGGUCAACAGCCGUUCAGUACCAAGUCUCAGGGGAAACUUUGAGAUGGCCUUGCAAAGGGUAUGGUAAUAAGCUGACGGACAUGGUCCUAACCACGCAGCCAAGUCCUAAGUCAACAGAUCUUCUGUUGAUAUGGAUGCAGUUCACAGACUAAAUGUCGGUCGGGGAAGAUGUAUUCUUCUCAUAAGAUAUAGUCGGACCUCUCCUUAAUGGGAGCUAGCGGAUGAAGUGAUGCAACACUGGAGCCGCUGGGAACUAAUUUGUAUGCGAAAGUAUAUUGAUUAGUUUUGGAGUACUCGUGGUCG
# CONDITION SUMMARY: 37 °C
In this scheme, each record receives a class according to its self-splicing fitness (ln); the ranges are lowest (below -2), middle (-2 to below -0.9), highest (-0.9 or more)

QUERY: GET /class?item= GCGCAGCAAUAUUACGAAAU
RESULT: highest

QUERY: Assign a bin to GAGCAGCAAUAUUACGAAUU
RESULT: middle

QUERY: Could you tell me which band ACUUAGCAAUAUUACGUGCG belongs to?
RESULT: highest

QUERY: Bin this entry: UACGAGCAAUAUUACGCUGU
RESULT: middle

QUERY: For the record CGUGAGCAAUAUUACGGAAA , report the class its self-splicing fitness (ln) corresponds to.
RESULT: middle

QUERY: State the class of the sequence shown: UUAGAGCAAUAUUACGAGGU
RESULT: lowest

QUERY: Which class is correct for the following sequence? CUAAAGCAAUAUUACGUCCA
RESULT: lowest

QUERY: Where would ACGCAGCAAUAUUACGAGGU land among the classes by reported self-splicing fitness (ln)?
RESULT: lowest

QUERY: Hi, small favor: classify UAUCAGCAAUAUUACGGAAG by its self-splicing fitness (ln) when you get a moment.
RESULT: highest

QUERY: Which band does UAUAAGCAAUAUUACGGCAG fall in?
RESULT: highest

QUERY: Band for CAAUAGCAAUAUUACGAACU ?
RESULT: middle

QUERY: Record AGUCAGCAAUAUUACGACCC — which class?
RESULT: highest

QUERY: Hi, small favor: classify GCCCAGCAAUAUUACGGGCA by its self-splicing fitness (ln) when you get a moment.
RESULT: lowest

====

# self-splicing fitness (ln) per record follows
# ASSAY COMMENT: self-splicing fitness, log relative to wild type (ln ratio); higher = more splicing; Tetrahymena group I intron in knt gene, E. coli kanamycin selection, DiMSum; sequences stand for … in CUCUCU…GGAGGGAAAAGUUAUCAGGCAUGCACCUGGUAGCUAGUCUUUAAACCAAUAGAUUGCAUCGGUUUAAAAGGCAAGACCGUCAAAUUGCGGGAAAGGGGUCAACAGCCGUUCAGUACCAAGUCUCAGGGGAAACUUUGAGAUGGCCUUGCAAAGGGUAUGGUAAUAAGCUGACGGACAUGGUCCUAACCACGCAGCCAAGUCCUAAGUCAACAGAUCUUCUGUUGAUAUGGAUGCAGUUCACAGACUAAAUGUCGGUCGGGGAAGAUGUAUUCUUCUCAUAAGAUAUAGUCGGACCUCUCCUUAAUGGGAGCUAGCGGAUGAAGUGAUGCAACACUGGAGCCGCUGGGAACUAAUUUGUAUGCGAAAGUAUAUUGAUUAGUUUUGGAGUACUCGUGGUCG
# CONDITION SUMMARY: 30 °C
Write the value as a bare number.

Recorded self-splicing fitness (ln), per entry:
AAUGAGCAAUAUUACGCACU : -1.07
UGAGAGCAAUAUUACGCCUG : -2.46
CCAAAGCAAUAUUACGAAGU : -3.04
UAUUAGCAAUAUUACGCCUU : -0.78
AGCGAGCAAUAUUACGGCCU : -0.967
UGUGAGCAAUAUUACGCGAG : -2.69
UGUGAGCAAUAUUACGUCCA : -0.973
AAAUAGCAAUAUUACGAAGU : -2.55
AAGCAGCAAUAUUACGUACA : -1.43
GUAGAGCAAUAUUACGAAGC : -2.62

Would you kindly look at the next entry?
QUERY: Sample GGCAAGCAAUAUUACGUGAC — what was its self-splicing fitness (ln)?
RESULT: -1.6
